The measured values listed here are drawn from ChEMBL document CHEMBL4052711.

biological target: Indoleamine 2,3-dioxygenase 1 (Homo sapiens, UniProt P14902); experiment: Inhibition of human IDO1 at 100 uM pre-incubated for 10 mins before L-Trp as substrate addition and measured after 30 mins by colorimetry
Sequence (P14902 whole entry, looked up): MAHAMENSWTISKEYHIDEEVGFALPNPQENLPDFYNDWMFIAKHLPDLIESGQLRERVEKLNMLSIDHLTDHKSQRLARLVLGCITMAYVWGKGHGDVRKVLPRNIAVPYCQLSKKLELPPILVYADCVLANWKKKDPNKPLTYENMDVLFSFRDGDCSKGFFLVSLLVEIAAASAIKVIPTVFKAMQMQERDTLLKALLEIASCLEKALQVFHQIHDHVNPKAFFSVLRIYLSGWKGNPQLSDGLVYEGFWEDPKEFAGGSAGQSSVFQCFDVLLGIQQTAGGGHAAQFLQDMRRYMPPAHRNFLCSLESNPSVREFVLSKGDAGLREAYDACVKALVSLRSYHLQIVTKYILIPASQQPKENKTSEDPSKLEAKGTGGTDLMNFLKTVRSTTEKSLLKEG
So I've got a bunch of molecules here, and I need their inhibition values.
Write down the numeric answer in % and omit the unit.

# input Return reported inhibition. Input molecule: S=c1[nH]c(-c2cccc(Cl)c2)cs1
# output 40

# input Give the value of inhibition reported for the following: S=c1[nH]c(-c2ccc(Br)cc2)cs1
# output 100

# input Please indicate inhibition recorded for Sc1nc(-c2ccc(Cl)cc2)cs1
# output 95

# input Look up and state reported inhibition for FC(F)(F)c1ccc(-c2csc(=S)[nH]2)cc1
# output 37

# input Give a short answer stating reported inhibition for S=c1[nH]c(-c2cccc(Br)c2)cs1 .
# output 81

# input Give reported inhibition value for COc1ccccc1-c1c[nH]c(=S)s1
# output 12

# input Tell me inhibition reported for Nc1nc(-c2ccccc2)cs1
# output 13
